- run_description: qHTS assay for small molecule agonists of the p53 signaling pathway - cell viability (AID 651633); also: nearly all actives have a fitted effect of over 30% in size
- condition_details: p53RE-bla HCT-116 viability, ATP luminescence, 16 h; series mostly up to 83.3 µM
Inconclusive results are not listed. The source made the active and inactive calls. Calls follow the shape of the full dose curve.
Outcome codes: yes (1) for active, no (0) for inactive

* Nc1ccc(S(=O)(=O)O)c(N)c1 | no (0)
* O=S1OCCO1 | no (0)
* CN(C)C(=O)Nc1ccc(Oc2ccc(Cl)cc2)cc1 | no (0)
* N#C/C(=C1/SC[C@@H](c2ccc(Cl)cc2Cl)S1)n1ccnc1 | no (0)
* COc1ccccc1N=Nc1c(S(=O)(=O)O)cc2cc(S(=O)(=O)O)cc(NC(C)=O)c2c1O | no (0)
* CO[C@H]1C=CO[C@@]2(C)Oc3c(C)c(O)c4c(O)c(c5c(c4c3C2=O)=NC2(CCN(CC(C)C)CC2)N=5)NC(=O)/C(C)=C\C=C/[C@H](C)[C@H](O)[C@@H](C)[C@@H](O)[C@@H](C)[C@H](OC(C)=O)[C@@H]1C | no (0)
* CC(C)OCC1CO1 (stereo not drawn) | no (0)
* COC(=O)CC(=O)C(C)(C)C | no (0)
* Oc1ccc(Nc2ccccc2)cc1 | no (0)
* C[C@@H]1C[C@H]2[C@@H]3CCC4=CC(=O)C=C[C@]4(C)[C@@]3(F)[C@@H](O)C[C@]2(C)[C@@]1(O)C(=O)CO | no (0)
* Fc1c(F)c(F)c(Br)c(F)c1F | no (0)
* O=C(/C=C/c1ccccc1)OCCCc1ccccc1 | no (0)
* Nc1ccc(C(=O)OCCCOC(=O)c2ccc(N)cc2)cc1 | no (0)
* Cc1occc1C(=O)Nc1ccc(C(=O)N2CCC(F)(F)/C(=C\C(=O)N3CCC(N4CCCCC4)CC3)c3ccccc32)cc1 | no (0)
* Cc1c(C(=O)NN2CCCCC2)nn(-c2ccc(Cl)cc2Cl)c1-c1ccc(Cl)cc1 | yes (1)
* CCCCCCCC/C=C\CCCCCCCC(=O)OC | no (0)
* CCCC(=O)O[C@]1(C(=O)COC(=O)CC)CC[C@H]2[C@@H]3CCC4=CC(=O)CC[C@]4(C)[C@H]3[C@@H](O)C[C@@]21C | no (0)
* Cc1oncc1C(=O)Nc1ccc(C(F)(F)F)cc1 | no (0)
* C=CC(=C)CCCC(C)(C)OC(C)=O | no (0)
* CC1CC(=O)NN=C1c1ccc(NCC(C)(C)NCC(O)COc2cc(Cl)ccc2C#N)cc1 (stereo not drawn) | no (0)
* CCCCC(CC)CNCC(CC)CCCC (stereo not drawn) | no (0)
* O=C(O)C(Cc1cc(I)c(O)c(I)c1)c1ccccc1 (stereo not drawn) | no (0)
* O=C(N[C@@H](c1ccccc1)[C@@H]1CCCCN1)c1cccc(C(F)(F)F)c1Cl | no (0)
* CCOC(=O)/C=C/C(=O)O | no (0)
* C[N+](C)(C)CCOC(N)=O | no (0)
* O=S(=O)(c1ccccc1)c1ccc(Cl)cc1 | no (0)
* NCC1CCCC(CN)C1 (stereo not drawn) | no (0)
* CC(N)CN (stereo not drawn) | no (0)
* Cc1ccc(S)cc1 | no (0)
* CCn1cc(C(=O)O)c(=O)c2cc(F)c(N3CCNCC3)nc21 | no (0)
* Cc1ccnc2ccccc12 | no (0)
* Cc1cc(C(=C2C=CC(=Nc3ccc(S(=O)(=O)O)cc3S(=O)(=O)O)C=C2)c2ccc(Nc3ccc(S(=O)(=O)O)cc3)cc2)ccc1N | no (0)
* COC(=O)Nc1nc2ccc(C(=O)c3cccs3)cc2[nH]1 | no (0)
* COCCOC | no (0)
* C/C=C(\C)C(=O)OCCC(C)CCC=C(C)C (stereo not drawn) | no (0)
* CC1CN(c2cc3c(cc2F)c(=O)c(C(=O)O)cn3-c2ccc(F)cc2F)CCN1 (stereo not drawn) | no (0)
* c1cnc2c(n1)CCCC2 | no (0)
* CC[C@@H]([C@H](C)O)n1ncn(-c2ccc(N3CCN(c4ccc(OC[C@@H]5CO[C@@](Cn6cncn6)(c6ccc(F)cc6F)C5)cc4)CC3)cc2)c1=O | yes (1)
* COc1cc2c(N3CCN(C(=O)Nc4ccc(OC(C)C)cc4)CC3)ncnc2cc1OCCCN1CCCCC1 | yes (1)
* O=C(c1ccc(O)cc1)c1ccc(Cl)cc1 | no (0)
* CC(C)c1nnc2ccc(-c3ocnc3-c3cc(F)ccc3F)cn12 | no (0)
* O=C(CCCN1CCC(O)(c2ccc(Br)cc2)CC1)c1ccc(F)cc1 | no (0)
* C=CC(C)(C)CC(=O)OC | no (0)
* CCOC(=O)[C@@H](C)Oc1ccc(Oc2nc3ccc(Cl)cc3o2)cc1 | no (0)
* Nc1nccs1 | no (0)
* CC(COc1ccc(C(C)(C)C)cc1)OS(=O)OCCCl (stereo not drawn) | no (0)
* CCC1(C)CC(=O)NC1=O (stereo not drawn) | no (0)
* CN1CCN(CCCN2c3ccccc3Sc3ccc(S(=O)(=O)N(C)C)cc32)CC1 | no (0)
